- STUDY TARGET: T1, human EphA3 (Homo sapiens, UniProt P29320)
- T1 construct: a protein of the extracellular region of each human Eph receptor fused with the SEAP protein and the His tag; made in house; host or cells: Expi293F cells (culture supernatant)
- T1 sequence (P29320 21-541 limits assumed): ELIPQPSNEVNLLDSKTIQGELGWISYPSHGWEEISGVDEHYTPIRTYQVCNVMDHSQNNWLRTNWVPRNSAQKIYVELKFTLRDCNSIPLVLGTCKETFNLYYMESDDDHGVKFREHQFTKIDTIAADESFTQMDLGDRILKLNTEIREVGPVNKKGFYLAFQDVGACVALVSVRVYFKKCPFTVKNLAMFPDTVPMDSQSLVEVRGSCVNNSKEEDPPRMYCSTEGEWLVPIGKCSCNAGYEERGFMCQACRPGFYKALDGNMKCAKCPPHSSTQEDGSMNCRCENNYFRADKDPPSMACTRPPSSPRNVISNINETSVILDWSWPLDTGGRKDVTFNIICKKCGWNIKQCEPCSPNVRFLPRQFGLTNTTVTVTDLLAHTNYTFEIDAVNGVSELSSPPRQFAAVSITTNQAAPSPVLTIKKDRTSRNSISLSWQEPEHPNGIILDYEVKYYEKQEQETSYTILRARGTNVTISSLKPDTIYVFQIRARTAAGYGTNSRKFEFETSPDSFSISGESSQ
- ASSAY OVERVIEW: Selectivity ELISA of humanized antibodies for human Eph receptor
- Format: binding
- CONDITION DETAILS: coated protein 1 nM
OBSERVATION TYPE: hEphA3-SEAP-: absorbance at 450 nm, percentage with respect to hEphA4-SEAP-His as 100% (%)
Please reply with the bare figure in % and do not write the unit itself.

Prompt line: Which value of hEphA3-SEAP-: absorbance at 450 nm, percentage with respect to hEphA4-SEAP-His as 100% has been reported for 83 (antibody, V domains shown, constant regions without entry; synthetic humanized antibody light chain variable region sequence; synthetic humanized antibody heavy chain variable region sequence) VL: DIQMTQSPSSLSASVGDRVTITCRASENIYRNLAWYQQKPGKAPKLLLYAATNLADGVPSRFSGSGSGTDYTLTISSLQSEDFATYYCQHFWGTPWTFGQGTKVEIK VH: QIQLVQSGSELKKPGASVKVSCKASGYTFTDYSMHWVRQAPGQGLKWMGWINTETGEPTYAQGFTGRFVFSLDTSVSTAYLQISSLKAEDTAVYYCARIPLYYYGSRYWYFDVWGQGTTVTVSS in the records?
Response line: 5.7
